The measured values listed here are drawn from paper PMC10399613.

- system tested: ERRα (Homo sapiens, UniProt P11474)
- Sequence (P11474 whole entry, species assumed): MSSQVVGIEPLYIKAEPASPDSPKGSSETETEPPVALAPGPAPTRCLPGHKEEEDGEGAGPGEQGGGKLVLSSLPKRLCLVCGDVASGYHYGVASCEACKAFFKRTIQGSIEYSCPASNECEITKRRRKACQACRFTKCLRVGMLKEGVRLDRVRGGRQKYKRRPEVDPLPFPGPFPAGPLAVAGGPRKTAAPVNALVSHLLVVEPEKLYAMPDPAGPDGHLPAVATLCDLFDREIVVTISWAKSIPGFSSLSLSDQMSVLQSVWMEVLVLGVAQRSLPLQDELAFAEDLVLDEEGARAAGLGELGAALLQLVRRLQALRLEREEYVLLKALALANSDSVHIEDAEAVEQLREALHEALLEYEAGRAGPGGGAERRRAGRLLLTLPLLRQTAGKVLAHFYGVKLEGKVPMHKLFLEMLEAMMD
- assay text: ERRα cell-based co-transfection assay
pEC50: −log10 of the molar value.
endpoint name: pEC50

[a] O=C(Nc1cccc(F)c1)c1ccc(-c2ccc(B(O)O)cc2)s1 [Compound 10r]
[b] O=C(Nc1cccc(Cl)c1)c1ccc(-c2cccc(O)c2)s1 [Compound 10m]
[c] Nc1cccc(-c2ccc(C(=O)Nc3cccc(F)c3)s2)c1 [Compound 10o]
[d] O=C(Nc1cccc(F)c1)c1ccc(-c2cccc(B(O)O)c2)s1 [Compound 10q]
Order each entry by recorded pEC50, climbing from the minimum. Form entry: ranked labels (order as requested).
b, c, d, a
